Kindly supply the reported Kd values for the records listed here.
Target: T1, human Scribble (SCRIB) PDZ2 domain (residues 860-950) (human, UniProt Q14160 860-950)
T1 construct: also called PDZ2 WT
T1 sequence (looked up): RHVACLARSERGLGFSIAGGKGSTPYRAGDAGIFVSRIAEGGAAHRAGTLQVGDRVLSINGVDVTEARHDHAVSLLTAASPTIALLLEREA
Test: ITC
Details: both partners purified
Answers are plain numbers, in µM.

INSERT INTO assay_data (binder, valuetype, assayresult) VALUES
  ('KMARTIESEV [NS1 ESEV PBM peptide KMARTIESEV (H5N1 A/Viet Nam/1194/2004), 10-mer]', 'Kd', 18.7);

Next binder, please.
The measured Kd associated with KMARTIESKV [NS1 ESKV PBM peptide KMARTIESKV (H5N1 A/chicken/Hubei/327/2004), 10-mer] reads 9.5
